The compounds below have reported EC50 for Peroxisome proliferator-activated receptor gamma (Homo sapiens, UniProt P37231).
Measured metric: EC50

• COc1ccc(CC(C)C(=O)O)cc1CNC(=O)c1ccc(C(F)(F)F)cc1 (stereo not drawn) = > 10 µM
• CCCCOc1ccc(C[C@@H](CC)C(=O)O)cc1CNC(=O)c1ccc(C(F)(F)F)cc1F = 7 µM
• COc1ccc(CCC(=O)O)cc1CNC(=O)c1ccc(C(F)(F)F)cc1 = > 10 µM

---

Target or test system: Peroxisome proliferator-activated receptor alpha (Homo sapiens)
Sequence (Q07869 whole entry): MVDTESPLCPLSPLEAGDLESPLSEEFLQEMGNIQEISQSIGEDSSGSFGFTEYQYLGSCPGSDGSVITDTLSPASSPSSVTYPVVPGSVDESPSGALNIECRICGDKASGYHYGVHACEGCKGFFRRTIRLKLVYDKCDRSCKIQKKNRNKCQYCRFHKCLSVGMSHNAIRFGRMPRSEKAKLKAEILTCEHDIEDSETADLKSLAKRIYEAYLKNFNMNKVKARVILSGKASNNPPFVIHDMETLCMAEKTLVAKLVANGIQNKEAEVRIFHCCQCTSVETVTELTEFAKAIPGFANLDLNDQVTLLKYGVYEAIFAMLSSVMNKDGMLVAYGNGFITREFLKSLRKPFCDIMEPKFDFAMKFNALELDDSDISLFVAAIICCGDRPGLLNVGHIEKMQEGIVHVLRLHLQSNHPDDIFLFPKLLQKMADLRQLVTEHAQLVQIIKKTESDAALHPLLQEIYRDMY
Protocol details: Effect on PPARalpha transactivation activity in HEK293 cells
Measured metric: EC50

• CCC(Cc1ccc(OCc2ccccc2)c(CNC(=O)c2ccc(C(F)(F)F)cc2)c1)C(=O)O (stereo unspecified) = > 10 µM
